MEASURED_TARGET: human mGluR2 (Homo sapiens (Human))
ASSAY_EXPLANATION: [35S]GTPγS binding assay (Affinity to mGluR2)
Assay type: biochemical
ASSAY_SETUP: cell membrane fraction of HEK293 cells stably expressing human mGluR2; glutamic acid 10 μM
pIC50: −log10 of the molar value.
READOUT_KIND: pIC50

Check out these entries, answers already filled in.
Cc1cc(-c2nc(-c3ccc(F)c(OCCF)c3)n3c2CCO[C@H](C)C3)cc(C)n1 :: 7.58
Cc1cc(-c2nc(-c3ccc(OC(F)(F)F)c(Cl)c3)n3c2CCO[C@H](C)C3)cc(C)n1 :: 8.36
Cc1cc(-c2nc(-c3ccc(Cl)c(Cl)c3)n3c2CCO[C@H](C)C3)cc(C)n1 :: 7.85
COc1cc(-c2nc(-c3ccc(Cl)c(OC)c3)n3c2CCO[C@H](C)C3)cc(C)n1 :: 7.55
COc1cc(-c2nc(-c3ccnc(C)c3)c3n2C[C@@H](C)OCC3)ccc1OC(F)(F)F :: 8.32

P. COc1cc(-c2nc(-c3ccnc(C)c3)c3n2C[C@@H](CF)OCC3)ccc1Cl
Q. CCCOc1cc(-c2nc(-c3cc(C)nc(C)c3)c3n2CCOCC3)ccc1F
R. Cc1cc(-c2nc(-c3ccc(OC(F)(F)F)c(C)c3)n3c2CCO[C@H](C)C3)cc(C)n1
S. CCOc1cc(-c2nc(-c3cc(C)nc(C)c3)c3n2C[C@@H](C)OCC3)ccc1C(F)(F)F
Data request: Ordering: ascending pIC50. Write out the labels following the order that was asked for.
Data returned: Q, P, R, S
(Q: 7.22, P: 7.87, R: 8.33, S: 8.96)

1. Cc1cc(-c2nc(-c3ccc(C(F)(F)F)c(Cl)c3)n3c2CCOCC3)cc(C)n1
2. COc1cc(-c2nc(-c3ccnc(C)c3)c3n2C[C@@H](C)OCC3)ccc1Cl
Data request: // pick min by pIC50: 1 , 2 Pick one and reply with its label.
Data returned: 2

1. Cc1cc(-c2nc(-c3ccc(F)c(Cl)c3)n3c2CCO[C@H](C)C3)cc(C)n1
2. Cc1cc(-c2nc(-c3ccc(Cl)c(OC(F)(F)F)c3)n3c2CCO[C@H](C)C3)cc(C)n1
Data request: // pick min by pIC50: 1 , 2 Pick one and reply with its label.
Data returned: 1
(1: 7.67, 2: 7.88)

I. CCOc1cc(-c2nc(-c3cc(C)nc(C)c3)c3n2CCOCC3)ccc1Cl
II. Cc1cc(-c2nc(-c3ccc(Cl)c(F)c3)n3c2CCO[C@H](C)C3)ccn1
Data request: Which one would you say has the larger pIC50 value: I , or II ? Pick one and reply with its label.
Data returned: I
(I: 7.64, II: 7.38)

###

MEASURED_TARGET: human mGluR2 (Homo sapiens (Human), UniProt Q14416)
Sequence (Q14416 19-872): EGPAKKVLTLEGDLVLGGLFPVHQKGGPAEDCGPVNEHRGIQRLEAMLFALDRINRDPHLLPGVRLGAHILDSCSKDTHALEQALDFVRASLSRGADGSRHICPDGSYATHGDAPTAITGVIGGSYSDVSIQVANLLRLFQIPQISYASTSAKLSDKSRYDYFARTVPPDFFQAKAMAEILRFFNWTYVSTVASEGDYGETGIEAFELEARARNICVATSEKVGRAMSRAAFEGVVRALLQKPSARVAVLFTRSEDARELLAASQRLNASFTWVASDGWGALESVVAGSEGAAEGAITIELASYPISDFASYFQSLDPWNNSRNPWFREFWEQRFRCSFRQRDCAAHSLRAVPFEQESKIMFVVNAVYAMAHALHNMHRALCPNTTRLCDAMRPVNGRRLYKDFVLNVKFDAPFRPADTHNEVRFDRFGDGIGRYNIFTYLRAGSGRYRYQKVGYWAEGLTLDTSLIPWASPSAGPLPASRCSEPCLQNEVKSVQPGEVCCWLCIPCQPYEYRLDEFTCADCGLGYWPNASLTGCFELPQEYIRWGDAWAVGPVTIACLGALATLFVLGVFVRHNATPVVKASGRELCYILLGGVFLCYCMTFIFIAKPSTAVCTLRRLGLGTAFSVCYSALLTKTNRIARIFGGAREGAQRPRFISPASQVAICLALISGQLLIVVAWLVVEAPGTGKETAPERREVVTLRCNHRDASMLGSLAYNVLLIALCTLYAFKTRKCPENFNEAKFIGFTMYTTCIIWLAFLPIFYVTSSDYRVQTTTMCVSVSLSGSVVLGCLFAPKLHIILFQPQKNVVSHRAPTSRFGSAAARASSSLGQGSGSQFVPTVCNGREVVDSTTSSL
ASSAY_EXPLANATION: [35S]GTPγS binding assay (Affinity to mGluR2)
Type: biochemical
ASSAY_SETUP: cell membrane fraction of HEK293 cells stably expressing human mGluR2; glutamic acid 10 μM
READOUT_KIND: IC50 (µM)

Cc1cc(-c2nc(-c3ccc(F)c(OCC4CCC4)c3)n3c2CCOCC3)cc(C)n1 :: 0.0254
Cc1cc(-c2nc(-c3ccc(C(F)(F)F)c(Cl)c3)n3c2CCO[C@H](C)C3)ccn1 :: 0.0333
Cc1cc(-c2nc(-c3ccc(OC(F)F)c(F)c3)n3c2CCOCC3)ccn1 :: 0.0472

I. Cc1cc(-c2nc(-c3ccc(OC(F)(F)F)cc3)n3c2CCOCC3)cc(C)n1
II. Cc1cc(-c2nc(-c3ccc(Cl)c(Cl)c3)n3c2CCO[C@H](CF)C3)ccn1
III. CCOc1cc(-c2nc(-c3ccnc(C)c3)c3n2C[C@@H](C)OCC3)ccc1C(F)(F)F
Data request: Ordering: ascending IC50. Write out the labels following the order that was asked for.
Data returned: III, II, I

###

MEASURED_TARGET: human mGluR2 (Homo sapiens (Human), UniProt Q14416)
ASSAY_EXPLANATION: [35S]GTPγS binding assay (Affinity to mGluR2)
Format: biochemical
ASSAY_SETUP: cell membrane fraction of HEK293 cells stably expressing human mGluR2; glutamic acid 10 μM; inhibition of specific [35S]GTPγS binding
pIC50: −log10 of the molar value.
READOUT_KIND: pIC50

Cc1cc(-c2nc(-c3ccc(F)c(C(F)(F)F)c3)n3c2CCO[C@H](C)C3)ccn1 :: 7.58
Cc1cc(-c2nc(-c3ccc(C(F)F)c(Cl)c3)n3c2CCO[C@H](C)C3)cc(C)n1 :: 7.65
CCc1ccc(-c2nc(-c3ccnc(C)c3)c3n2C[C@@H](C)OCC3)cc1OCC1CC1 :: 7.57
Cc1cc(-c2nc(-c3ccc(OC4CC4)c(OC(F)(F)F)c3)n3c2CCOCC3)cc(C)n1 :: 7.56
COc1cc(-c2nc(-c3cc(C)nc(C(F)F)c3)c3n2C[C@@H](CF)OCC3)ccc1Cl :: 7.41

a. Cc1cc(-c2nc(-c3ccc(OC(F)F)c(F)c3)n3c2CCO[C@H](C)C3)ccn1
b. Cc1cc(-c2nc(-c3ccc(OC(F)(F)F)c(C#N)c3)n3c2CCO[C@H](C)C3)cc(CF)n1
Data request: Which one would you say has the larger pIC50 value: a , or b ? Pick one and reply with its label.
Data returned: b

###

MEASURED_TARGET: human mGluR2 (Homo sapiens (Human), UniProt Q14416)
ASSAY_EXPLANATION: [35S]GTPγS binding assay (Affinity to mGluR2)
Type: biochemical
ASSAY_SETUP: cell membrane fraction of HEK293 cells stably expressing human mGluR2; glutamic acid 10 μM
pIC50: −log10 of the molar value.
READOUT_KIND: pIC50

Check out these entries, answers already filled in.
Cc1cc(-c2nc(-c3ccc(OC4CC4)c(Cl)c3)n3c2CCO[C@H](C)C3)cc(C)n1 :: 8.52
COc1ccc(-c2nc(-c3cc(C)nc(C)c3)c3n2C[C@@H](C)OCC3)cc1Cl :: 8.30

1. COc1cc(-c2nc(-c3cc(C)nc(C)c3)c3n2CCOCC3)ccc1Br
2. Cc1cc(-c2nc(-c3ccc(OC(F)(F)F)cc3)n3c2CCO[C@H](C)C3)cc(CF)n1
Data request: Which one would you say has the larger pIC50 value: 1 , or 2 ? Pick one and reply with its label.
Data returned: 2
(2: 8.36, 1: 7.50)

###

MEASURED_TARGET: UniProt:Q14416
ASSAY_EXPLANATION: [35S]GTPγS binding assay (Affinity to mGluR2)
Format: biochemical
ASSAY_SETUP: cell membrane fraction of HEK293 cells stably expressing human mGluR2; glutamic acid 10 μM
pIC50: −log10 of the molar value.
READOUT_KIND: pIC50

Cc1cc(-c2nc(-c3ccc(OC4CC4)c(Cl)c3)n3c2CCOCC3)cc(C)n1 :: 7.43
COc1cc(-c2nc(-c3cc(C)nc(C)c3)c3n2C[C@@H](C)OCC3)ccc1C :: 7.67
COc1cc(-c2nc(-c3cc(C)nc(C)c3)c3n2C[C@@H](CF)OCC3)ccc1OC(F)(F)F :: 8.57
Cc1cc(-c2nc(-c3ccc(OC(F)(F)F)c(F)c3)n3c2CCOCC3)cc(C)n1 :: 7.68
COc1ccc(-c2nc(-c3cc(C)nc(C)c3)c3n2C[C@@H](C)OCC3)cc1F :: 7.02

P. COc1cc(-c2nc(-c3cc(C)nc(C)c3)c3n2C[C@@H](C)OCC3)ccc1C(C)(F)F
Q. Cc1cc(-c2nc(-c3ccc(OCC(F)(F)F)c(F)c3)n3c2CCOCC3)cc(C)n1
R. COc1cc(-c2nc(-c3cc(C)nc(CF)c3)c3n2C[C@@H](C)OCC3)ccc1Cl
Data request: Ordering: ascending pIC50. Write out the labels following the order that was asked for.
Data returned: Q, P, R

###

MEASURED_TARGET: human mGluR2 (Homo sapiens (Human), UniProt Q14416)
ASSAY_EXPLANATION: [35S]GTPγS binding assay (Affinity to mGluR2)
Type: biochemical
ASSAY_SETUP: cell membrane fraction of HEK293 cells stably expressing human mGluR2; glutamic acid 10 μM; inhibition of specific [35S]GTPγS binding
pIC50: −log10 of the molar value.
READOUT_KIND: pIC50

a. Cc1cc(-c2nc(-c3ccc(OC(F)(F)F)c(Cl)c3)n3c2CCO[C@H](C)C3)ccn1
b. Cc1cc(-c2nc(-c3ccc(OCC(F)F)c(Cl)c3)n3c2CCOCC3)cc(C)n1
Data request: Which one would you say has the larger pIC50 value: a , or b ? Pick one and reply with its label.
Data returned: a
(a: 8.52, b: 7.10)

I. COc1ccc(-c2nc(-c3cc(C)nc(C)c3)c3n2C[C@@H](C)OCC3)cc1OC(F)(F)F
II. COc1cc(-c2nc(-c3ccnc(C)c3)c3n2C[C@@H](C)OCC3)ccc1C(C)(F)F
III. CCc1ccc(-c2nc(-c3cc(C)nc(C)c3)c3n2C[C@@H](C)OCC3)cc1OCC1CC1
Data request: Ordering: ascending pIC50. Write out the labels following the order that was asked for.
Data returned: II, III, I
(II: 7.33, III: 7.76, I: 8.17)

1. CCOc1cc(-c2nc(-c3ccnc(C)c3)c3n2C[C@@H](C)OCC3)ccc1C
2. CCOc1cc(-c2nc(-c3ccnc(C)c3)c3n2C[C@@H](C)OCC3)ccc1CC
Data request: Which one would you say has the larger pIC50 value: 1 , or 2 ? Pick one and reply with its label.
Data returned: 2
(2: 8.10, 1: 7.78)
